Measured Target: rat brain type IIA Na+ channel (Nav1.2) (Rattus norvegicus, UniProt P04775)
Sequence (P04775 whole entry): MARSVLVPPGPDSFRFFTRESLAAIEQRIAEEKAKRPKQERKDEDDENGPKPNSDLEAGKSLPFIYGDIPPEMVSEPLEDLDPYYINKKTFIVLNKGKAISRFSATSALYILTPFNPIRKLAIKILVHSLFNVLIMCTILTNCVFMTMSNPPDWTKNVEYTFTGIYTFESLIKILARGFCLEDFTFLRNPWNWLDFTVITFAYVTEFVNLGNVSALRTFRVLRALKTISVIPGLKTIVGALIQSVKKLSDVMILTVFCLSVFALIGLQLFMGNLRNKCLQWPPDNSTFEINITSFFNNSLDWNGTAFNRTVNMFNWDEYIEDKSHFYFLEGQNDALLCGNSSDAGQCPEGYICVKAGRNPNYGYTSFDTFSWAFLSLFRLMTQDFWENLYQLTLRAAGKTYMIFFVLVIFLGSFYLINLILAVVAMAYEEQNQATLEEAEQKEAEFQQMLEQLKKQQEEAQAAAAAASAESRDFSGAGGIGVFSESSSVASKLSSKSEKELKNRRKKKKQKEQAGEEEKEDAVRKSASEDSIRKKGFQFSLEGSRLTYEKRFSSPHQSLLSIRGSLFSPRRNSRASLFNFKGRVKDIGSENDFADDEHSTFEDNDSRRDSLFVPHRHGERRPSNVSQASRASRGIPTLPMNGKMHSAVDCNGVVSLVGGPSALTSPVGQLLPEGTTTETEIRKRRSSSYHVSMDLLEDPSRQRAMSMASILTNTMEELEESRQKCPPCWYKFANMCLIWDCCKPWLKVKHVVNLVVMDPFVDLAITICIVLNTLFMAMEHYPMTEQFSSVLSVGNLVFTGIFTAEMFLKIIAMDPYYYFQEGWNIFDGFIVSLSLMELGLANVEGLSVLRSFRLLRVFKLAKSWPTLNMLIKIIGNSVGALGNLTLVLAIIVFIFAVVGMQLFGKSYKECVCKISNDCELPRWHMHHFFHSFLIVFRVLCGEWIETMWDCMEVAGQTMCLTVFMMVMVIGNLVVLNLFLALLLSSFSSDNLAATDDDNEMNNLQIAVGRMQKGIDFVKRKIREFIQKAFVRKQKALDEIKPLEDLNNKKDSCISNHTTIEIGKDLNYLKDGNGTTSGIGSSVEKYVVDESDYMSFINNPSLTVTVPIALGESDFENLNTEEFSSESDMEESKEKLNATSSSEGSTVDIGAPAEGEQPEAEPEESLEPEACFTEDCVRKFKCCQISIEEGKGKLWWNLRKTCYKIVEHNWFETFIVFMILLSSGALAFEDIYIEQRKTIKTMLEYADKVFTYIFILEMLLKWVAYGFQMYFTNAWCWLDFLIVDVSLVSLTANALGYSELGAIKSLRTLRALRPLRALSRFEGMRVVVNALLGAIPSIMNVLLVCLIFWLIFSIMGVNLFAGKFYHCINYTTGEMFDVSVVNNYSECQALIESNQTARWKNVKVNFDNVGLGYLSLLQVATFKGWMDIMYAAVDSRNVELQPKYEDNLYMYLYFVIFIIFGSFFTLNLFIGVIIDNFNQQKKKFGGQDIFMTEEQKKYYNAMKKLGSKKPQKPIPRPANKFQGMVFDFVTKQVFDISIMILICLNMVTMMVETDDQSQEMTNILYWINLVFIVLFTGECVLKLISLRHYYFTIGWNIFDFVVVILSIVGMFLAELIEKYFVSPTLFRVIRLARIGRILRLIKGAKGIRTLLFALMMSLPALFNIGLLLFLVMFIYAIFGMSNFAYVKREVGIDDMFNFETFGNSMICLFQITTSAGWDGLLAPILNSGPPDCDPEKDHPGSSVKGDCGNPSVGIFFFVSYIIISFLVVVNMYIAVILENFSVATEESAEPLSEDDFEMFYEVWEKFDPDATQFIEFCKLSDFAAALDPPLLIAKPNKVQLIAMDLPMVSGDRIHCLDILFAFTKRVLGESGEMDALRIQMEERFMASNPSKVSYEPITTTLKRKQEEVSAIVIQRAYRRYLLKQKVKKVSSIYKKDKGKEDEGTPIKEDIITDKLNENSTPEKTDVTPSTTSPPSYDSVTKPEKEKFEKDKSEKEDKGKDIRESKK
Test: Whole-cell patch clamp recordings of Na+ currents in CNaIIA-1 cells
Type: cell-based
pKi: −log10 of the molar value.
Experimental Readout: pKi

1) NC(=O)N1c2ccccc2C=Cc2ccccc21 [CBZ, carbamazepine, reference compound] = 4.84

###

Measured Target: rat brain type IIA Na+ channel (Nav1.2) (Rattus norvegicus)
Test: Whole-cell patch clamp recordings of Na+ currents in CNaIIA-1 cells
Assay type: cell-based
Recorded Conditions: fit of shift of inactivation curve; read-out: KI, dissociation constant for inactivated states
Experimental Readout: Ki (µM)

1. O=C(O)c1cc(NC(=O)N(c2ccccc2)c2ccccc2)c2c(Cl)cc(Cl)cc2n1 = 9.8

###

Measured Target: glycine recognition site of the NMDA receptor complex (Rattus norvegicus, UniProt P35439)
Construct: The telencephalon (cerebral cortex, hippocampus, and striatum) was dissected and homogenized
Test: [3H]5,7-DCKA binding assay
Recorded Conditions: rat cortical membranes; none = no displacement at 100 μM
pIC50: −log10 of the molar value.
Here the recorded pIC50 is given for each entry.
Experimental Readout: pIC50

1. O=C(O)c1cc(NC(=O)N(c2ccccc2)c2ccccc2)c2c(Cl)cc(Cl)cc2n1 [DCUKA] = 4.55
2. O=C(O)c1cc(=O)c2c(Cl)cc(Cl)cc2[nH]1 [5,7-DCKA, 5,7-dichlorokynurenic acid, reference compound] = 6.96

###

Measured Target: UniProtKB P21554
Sequence (P21554 whole entry, species assumed): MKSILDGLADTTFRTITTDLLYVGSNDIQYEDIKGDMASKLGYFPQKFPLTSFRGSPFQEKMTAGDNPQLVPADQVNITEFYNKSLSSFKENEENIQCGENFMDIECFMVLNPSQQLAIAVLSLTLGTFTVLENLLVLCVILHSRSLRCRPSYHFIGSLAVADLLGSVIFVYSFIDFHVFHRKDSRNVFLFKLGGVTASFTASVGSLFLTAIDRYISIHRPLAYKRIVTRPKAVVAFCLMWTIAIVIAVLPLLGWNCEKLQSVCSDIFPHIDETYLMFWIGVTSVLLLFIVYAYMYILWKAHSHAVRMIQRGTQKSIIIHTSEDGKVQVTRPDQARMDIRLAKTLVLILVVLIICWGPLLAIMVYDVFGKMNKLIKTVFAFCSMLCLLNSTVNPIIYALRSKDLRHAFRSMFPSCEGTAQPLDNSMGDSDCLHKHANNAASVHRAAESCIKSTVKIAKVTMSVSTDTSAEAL
pKi: −log10 of the molar value.
Experimental Readout: pKi

1) O=C(O)c1cc(NC(=O)N(c2ccccc2)c2ccccc2)c2c(Cl)cc(Cl)cc2n1 [DCUKA] = < 5.00

###

Measured Target: voltage sensitive sodium channel (neurotoxin receptor Site 2)
Test: [3H]BTX binding assay
Recorded Conditions: rat cortical synaptosomes, depolarizing conditions (135 mM KCl); read-out: IC50 [3H]BTX binding under depolarizing conditions (value in parentheses)
Experimental Readout: IC50 (µM)

1) NC(=O)N1c2ccccc2C=Cc2ccccc21 [CBZ, carbamazepine, reference compound] = 56
2) O=C(O)c1cc(NC(=O)N(c2ccccc2)c2ccccc2)c2c(Cl)cc(Cl)cc2n1 = 30

###

Test: Solubility limit in aqueous assay buffers
Format: physicochemical
Recorded Conditions: aqueous assay buffers (incubation or bath solutions), aqueous buffer, kinetic from dmso stock, DMSO 0.2 to 1%, read-out: concentrations that could not be tested due to limited solubility in aqueous buffers
Experimental Readout: solubility

1. O=C(O)c1cc(NC(=O)N(c2ccccc2)c2ccccc2)c2c(Cl)cc(Cl)cc2n1 = > 300 µM
2. COC(=O)c1cc(NC(=O)N(c2ccccc2)c2ccccc2)c2c(Cl)cc(Cl)cc2n1 = > 100 µM

###

Measured Target: voltage sensitive sodium channel (neurotoxin receptor Site 2)
Test: [3H]BTX binding assay
Recorded Conditions: rat cortical synaptosomes; none = no displacement at 100 μM; read-out: IC50 [3H]BTX binding
pIC50: −log10 of the molar value.
pIC50 reference
Experimental Readout: pIC50

1) O=C(O)c1cc(NC(=O)N(c2ccccc2)c2ccccc2)c2c(Cl)cc(Cl)cc2n1 = 4.12
2) COC(=O)c1cc(NC(=O)N(c2ccccc2)c2ccccc2)c2c(Cl)cc(Cl)cc2n1 = 4.60
3) NC(=O)N1c2ccccc2C=Cc2ccccc21 [CBZ, carbamazepine, reference compound] = 4.15
